Measured on: Epidermal growth factor receptor (Homo sapiens)
pIC50: −log10 of the molar value.
Assay metric: pIC50

**Q:** Give recorded pIC50 with Epidermal growth factor receptor (Homo sapiens) for the following compound: C=CC(=O)Nc1cccc(-n2c(=O)cc(C)c3cnc(Nc4ccc(N5CCN(CCCCCC(=O)N[C@H](C(=O)N6C[C@H](O)C[C@H]6C(=O)NCc6ccc(-c7scnc7C)cc6)C(C)(C)C)CC5)cc4OC)nc32)c1
**A:** < 6.00

----------
Measured on: Epidermal growth factor receptor (Homo sapiens, UniProt P00533, L858R/T790M)
Sequence (P00533 25-1210 T790M/L858R limits assumed): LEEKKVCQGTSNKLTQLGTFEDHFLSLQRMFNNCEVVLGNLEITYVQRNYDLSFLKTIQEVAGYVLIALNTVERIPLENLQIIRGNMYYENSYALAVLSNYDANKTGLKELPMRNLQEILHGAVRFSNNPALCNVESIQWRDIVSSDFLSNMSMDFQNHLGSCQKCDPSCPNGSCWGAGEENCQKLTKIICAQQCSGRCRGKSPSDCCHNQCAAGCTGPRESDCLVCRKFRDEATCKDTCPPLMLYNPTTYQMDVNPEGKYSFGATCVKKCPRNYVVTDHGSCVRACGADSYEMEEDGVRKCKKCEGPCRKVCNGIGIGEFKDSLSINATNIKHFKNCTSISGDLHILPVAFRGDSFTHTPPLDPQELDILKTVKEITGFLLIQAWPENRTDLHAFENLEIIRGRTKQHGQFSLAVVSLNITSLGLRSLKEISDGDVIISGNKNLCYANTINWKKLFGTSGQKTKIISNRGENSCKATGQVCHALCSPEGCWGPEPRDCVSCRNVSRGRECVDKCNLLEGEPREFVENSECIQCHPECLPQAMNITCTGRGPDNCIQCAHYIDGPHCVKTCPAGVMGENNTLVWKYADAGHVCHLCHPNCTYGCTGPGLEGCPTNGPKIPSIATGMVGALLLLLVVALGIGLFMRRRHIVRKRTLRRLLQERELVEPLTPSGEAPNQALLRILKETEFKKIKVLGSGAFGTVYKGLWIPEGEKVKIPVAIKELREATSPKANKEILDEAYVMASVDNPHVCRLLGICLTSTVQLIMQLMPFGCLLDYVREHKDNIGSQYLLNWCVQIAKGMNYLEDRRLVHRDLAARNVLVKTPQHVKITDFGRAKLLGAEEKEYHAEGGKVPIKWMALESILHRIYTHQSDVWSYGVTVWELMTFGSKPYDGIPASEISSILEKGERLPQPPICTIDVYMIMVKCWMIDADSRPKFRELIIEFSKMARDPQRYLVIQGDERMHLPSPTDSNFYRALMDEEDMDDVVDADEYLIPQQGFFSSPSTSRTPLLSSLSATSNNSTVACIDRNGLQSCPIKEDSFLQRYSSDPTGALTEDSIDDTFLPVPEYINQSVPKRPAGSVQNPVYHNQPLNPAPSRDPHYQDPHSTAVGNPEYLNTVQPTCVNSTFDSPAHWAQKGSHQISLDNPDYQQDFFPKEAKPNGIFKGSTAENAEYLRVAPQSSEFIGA
Experiment notes: Inhibition of EGFR L858R/T790M (unknown origin) using Poly (Glu, Tyr) 4:1 as substrate measured after 1 hr by ELISA
Assay metric: IC50 (nM)
Report the figure in nM without appending any unit label.

**Q:** Returns the measured IC50 for the input molecule. Input: C=CC(=O)Nc1cccc(-n2c(=O)cc(C)c3cnc(Nc4ccc(N5CCN(CCCCCC(=O)N[C@H](C(=O)N6C[C@H](O)C[C@H]6C(=O)NCc6ccc(-c7scnc7C)cc6)C(C)(C)C)CC5)cc4OC)nc32)c1
**A:** 19.3

----------
Measured on: von Hippel-Lindau disease tumor suppressor/Epidermal growth factor receptor (Homo sapiens, UniProt P00533+P40337, T790M/L858R)
Sequence (P00533 whole entry, looked up, stated change not applied): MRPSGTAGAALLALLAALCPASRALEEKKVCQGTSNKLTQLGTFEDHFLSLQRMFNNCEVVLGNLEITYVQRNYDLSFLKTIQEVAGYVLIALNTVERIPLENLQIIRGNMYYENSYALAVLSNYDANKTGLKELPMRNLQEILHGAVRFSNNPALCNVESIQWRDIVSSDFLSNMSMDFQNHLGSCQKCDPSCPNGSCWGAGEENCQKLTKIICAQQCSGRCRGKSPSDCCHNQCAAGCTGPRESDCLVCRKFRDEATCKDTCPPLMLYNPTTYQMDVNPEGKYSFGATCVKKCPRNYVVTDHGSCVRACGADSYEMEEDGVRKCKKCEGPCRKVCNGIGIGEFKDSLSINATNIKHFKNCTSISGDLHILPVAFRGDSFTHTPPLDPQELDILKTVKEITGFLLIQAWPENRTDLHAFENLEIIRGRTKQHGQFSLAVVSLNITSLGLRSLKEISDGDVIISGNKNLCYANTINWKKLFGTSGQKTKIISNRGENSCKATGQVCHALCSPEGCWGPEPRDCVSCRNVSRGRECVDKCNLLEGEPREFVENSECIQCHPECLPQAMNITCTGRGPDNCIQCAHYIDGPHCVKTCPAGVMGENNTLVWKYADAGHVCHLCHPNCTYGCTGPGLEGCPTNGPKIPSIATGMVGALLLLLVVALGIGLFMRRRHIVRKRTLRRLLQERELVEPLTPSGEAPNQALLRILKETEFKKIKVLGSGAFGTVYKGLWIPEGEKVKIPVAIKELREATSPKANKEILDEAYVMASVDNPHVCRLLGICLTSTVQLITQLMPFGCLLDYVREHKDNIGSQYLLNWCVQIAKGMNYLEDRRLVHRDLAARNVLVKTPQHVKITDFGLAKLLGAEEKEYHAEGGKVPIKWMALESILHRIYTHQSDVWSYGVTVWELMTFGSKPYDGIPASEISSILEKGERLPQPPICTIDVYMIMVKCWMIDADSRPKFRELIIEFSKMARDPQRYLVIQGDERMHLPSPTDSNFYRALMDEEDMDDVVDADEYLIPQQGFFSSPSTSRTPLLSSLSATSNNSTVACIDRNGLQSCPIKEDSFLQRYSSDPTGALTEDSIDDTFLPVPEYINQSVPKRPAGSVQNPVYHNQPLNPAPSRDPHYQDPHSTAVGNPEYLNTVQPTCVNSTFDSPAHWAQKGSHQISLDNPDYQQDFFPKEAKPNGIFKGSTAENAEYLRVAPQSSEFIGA
Sequence (P40337 whole entry, looked up, stated change not applied): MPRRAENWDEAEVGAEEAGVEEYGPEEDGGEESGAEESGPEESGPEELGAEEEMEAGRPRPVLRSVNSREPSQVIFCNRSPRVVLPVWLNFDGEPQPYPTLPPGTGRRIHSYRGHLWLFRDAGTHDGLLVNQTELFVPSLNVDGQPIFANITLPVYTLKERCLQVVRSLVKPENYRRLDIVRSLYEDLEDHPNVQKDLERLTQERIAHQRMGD
Experiment notes: Protac activity at VHL/EGFR L858R/T790M mutant in human NCI-H1975 cells assessed as EGFR degradation by Western blot analysis
Type: cell-based
DC50 values by entry
Report the figure in nM without appending any unit label.

C=CC(=O)Nc1cccc(-n2c(=O)cc(C)c3cnc(Nc4ccc(N5CCN(C(=O)CCCCCCCCC(=O)N[C@H](C(=O)N6C[C@H](O)C[C@H]6C(=O)NCc6ccc(-c7scnc7C)cc6)C(C)(C)C)CC5)cc4OC)nc32)c1: 69

**Q:** Returns the measured DC50 for the input compound. Input: C=CC(=O)Nc1cccc(-n2c(=O)cc(C)c3cnc(Nc4ccc(N5CCN(CCCCCCCC(=O)N[C@H](C(=O)N6C[C@H](O)C[C@H]6C(=O)NCc6ccc(-c7scnc7C)cc6)C(C)(C)C)CC5)cc4OC)nc32)c1
**A:** 466

**Q:** Returns the measured DC50 for the input compound. Input: C=CC(=O)Nc1cccc(-n2c(=O)cc(C)c3cnc(Nc4ccc(N5CCN(CCCCCCCCCC(=O)N[C@H](C(=O)N6C[C@H](O)C[C@H]6C(=O)NCc6ccc(-c7scnc7C)cc6)C(C)(C)C)CC5)cc4OC)nc32)c1
**A:** 132

----------
Measured on: von Hippel-Lindau disease tumor suppressor/Epidermal growth factor receptor (Homo sapiens, UniProt P00533+P40337, T790M/L858R)
Experiment notes: Protac activity at VHL/EGFR L858R/T790M mutant in human NCI-H1975 cells assessed as EGFR degradation by Western blot analysis
Assay type: cell-based
Assay metric: DC50

C=CC(=O)Nc1cccc(-n2c(=O)cc(C)c3cnc(Nc4ccc(N5CCN(CCCCCC(=O)N[C@H](C(=O)N6C[C@H](O)C[C@H]6C(=O)NCc6ccc(-c7scnc7C)cc6)C(C)(C)C)CC5)cc4OC)nc32)c1: 5.9 nM

**Q:** Returns the measured DC50 for the input compound. Input: C=CC(=O)Nc1cccc(-n2c(=O)cc(C)c3cnc(Nc4ccc(N5CCN(CCCCCCCCCCCC(=O)N[C@H](C(=O)N6C[C@H](O)C[C@H]6C(=O)NCc6ccc(-c7scnc7C)cc6)C(C)(C)C)CC5)cc4OC)nc32)c1
**A:** > 2000 nM

**Q:** Returns the measured DC50 for the input compound. Input: C=CC(=O)Nc1cccc(-n2c(=O)cc(C)c3cnc(Nc4ccc(N5CCN(C(=O)CCCCCCC(=O)N[C@H](C(=O)N6C[C@H](O)C[C@H]6C(=O)NCc6ccc(-c7scnc7C)cc6)C(C)(C)C)CC5)cc4OC)nc32)c1
**A:** 235 nM
